Just for reference, ChEMBL document CHEMBL4364294 is where these values come from.

Method Description: AUC (0 to infinity) in C57Bl6 mouse at 10 mg/kg, iv administered as single dose
Type: ADME, organism-based
Set-up: dose 10 mg/kg, time infinity, route intravenous
Experimental Conditions: in vivo
Measure Name: AUC(0-inf) (ng·h/mL)
One number for each entry, in ng·h/mL.

# compound O[C@H](C[C@H]1c2c(F)cccc2-c2cncn21)[C@H]1CC[C@H](O)CC1 ; its AUC(0-inf) = 6130

----------
Method Description: Clearance in dog at 25 mg/kg, iv administered as single dose
Type: ADME, organism-based, Canis lupus familiaris
Experimental Conditions: in vivo
Measure Name: clearance (mL/min/kg)
Numbers only, in mL/min/kg.

# compound O[C@H](C[C@H]1c2c(F)cccc2-c2cncn21)[C@H]1CC[C@H](O)CC1 [NAVOXIMOD] ; its clearance = 41.4
